FYI, the data here is from ChEMBL document CHEMBL3507680.

Assay: Human HepG2 cell viability assay in 384 well format
Type: toxicity, cell-based
Design: dose 125 nL, time 70.5 hour; concentration not given beside the values
Conditions: HepG2 cells, read-out: Inhibition
measure: cytotoxicity at 70.5 h (%)
Express your answer in %, writing the number without its unit.

Q. If you can, please state the reported cytotoxicity at 70.5 h value of CC(C)(C)c1n[nH]c(C2CN(C(=O)CCc3cscn3)CCO2)n1 (configuration not stated) .
A. -21.1

Q. Here is the next compound: COc1cccc2c1OCC(NC(=O)NCCc1ccccn1)C2 (configuration not stated)
A. -9.54

Q. Here is the next compound: CC(C)NC(=O)N1CCc2onc(C(=O)NCCN(C)C)c2C1
A. -2.85

Q. Here is the next compound: COC1(CNS(=O)(=O)c2ccccc2Cl)CCSC1 (configuration not stated)
A. -7.26

Q. Here is the next compound: CCOCC(O)CN1CCN(C(=O)CC(C)C)CC1 (configuration not stated)
A. -7.21

Q. Here is the next compound: Cc1ccc(N2CCC(C3CCN(CC(C)C)CC3)C2)nn1 (configuration not stated)
A. -6.28

Q. Here is the next compound: CC(O)(CNC(=O)c1cccnc1-n1cccn1)c1ccsc1 (configuration not stated)
A. -7.4

Q. Here is the next compound: CN(C)C(=O)Cn1cc(C(=O)NCCc2ccc(Cl)cc2Cl)nn1
A. -0.867

Q. Here is the next compound: COCCCC1(CO)CCCN(C(=O)c2cnc3c(c2)CCCC3)C1 (configuration not stated)
A. -6.26

Q. Here is the next compound: Cn1ccnc1CN1CCCN(C(=O)COC2CCCC2)CC1
A. -2.98

Q. Here is the next compound: O=C(COc1ccccc1NCc1ccc(F)cc1)N1CCOCC1
A. -20.5

Q. Here is the next compound: O=C(CN1CCCCCC1)NCc1ccc2[nH]c(=O)[nH]c2c1
A. -8.16

Q. Here is the next compound: Fc1ccc(CN2CCO[C@H]3[C@H](Oc4ccccn4)CC[C@@H]32)cc1
A. 7.26

Q. Here is the next compound: COC(=O)C1CCCCN1Cc1cccc(C(=O)NCc2ccco2)c1 (configuration not stated)
A. -10.4

Q. Here is the next compound: Cc1ncccc1NC(=O)[C@@H]1CCO[C@@H]2CCN(c3ccncn3)C[C@H]21
A. -6.04

Q. Here is the next compound: C[C@@H]1CN(CCC(=O)NCc2ccccc2Cl)CC[C@@]1(O)C1CCC1
A. -0.451

Q. Here is the next compound: Cc1ccc(NC2CCN(C(=O)COc3cccc(F)c3)CC2)nn1
A. 43.9

Q. Here is the next compound: CCN(CC)c1ncnc2c1CCN(CC1CCOCC1)CC2
A. -16.3

Q. Here is the next compound: Cc1nc(C)c(CCN2CCC(Oc3ccccc3F)CC2)s1
A. 8.23

Q. Here is the next compound: CN1CC[C@]2(CN(CC3CC3)C[C@H]2c2ccccc2)C1=O
A. 23.4

Q. Here is the next compound: O=C(NC1CCCNC1)c1cc(COc2cccc(C(F)(F)F)c2)[nH]n1 (configuration not stated)
A. -0.657

Q. Here is the next compound: CCc1nnc(CN2CCN(c3cccc(OC)c3)C(=O)C2)o1
A. 12.1

Q. Here is the next compound: O=C(NCC(O)c1ccc(F)cc1F)c1cccc(F)c1 (configuration not stated)
A. -2.46

Q. Here is the next compound: CC(Cn1cccn1)Nc1cnc2ccccc2n1 (configuration not stated)
A. -0.212

Q. Here is the next compound: O=C1CCC2(CCCN(Cc3nccs3)C2)N1CC1CC1 (configuration not stated)
A. 10.7

Q. Here is the next compound: CNC(=O)C1CCN(C(=O)NCCc2ccc(Cl)s2)CC1
A. -5.01

Q. Here is the next compound: Cc1cc(C)n(CC2CCCN2C(=O)c2ccc3nncn3c2)n1 (configuration not stated)
A. -4.03

Q. Here is the next compound: CC(C(=O)NCCCn1ccnc1)n1cc(Br)cn1 (configuration not stated)
A. -9.82

Q. Here is the next compound: CCCNC(=O)c1cccc(CNCc2csc(C(C)C)n2)c1
A. -78.5

Q. Here is the next compound: Cc1[nH]c2c(C)ccc(C)c2c1CC(=O)NCC(O)c1cccnc1 (configuration not stated)
A. -10.2

Q. Here is the next compound: CC(=O)NC1CCN(C(=O)c2cnc(COc3ccccc3)nc2O)C1 (configuration not stated)
A. -4.02

Q. Here is the next compound: CCN1C(=O)CCCC12CCCN(C(=O)c1conc1C)C2 (configuration not stated)
A. -12.9

Q. Here is the next compound: CCCNC(=O)C[C@@H]1CCN(C(=O)c2cccnc2)C[C@@H]1CC
A. 12.5

Q. Here is the next compound: Cc1cc(C(=O)N2CCOC(c3nc(C(C)C)n[nH]3)C2)c(C)s1 (configuration not stated)
A. -4.17

Q. Here is the next compound: CCN(C(c1cccnc1)c1ccc2c(c1)CCC2)S(C)(=O)=O (configuration not stated)
A. 3.11

Q. Here is the next compound: O=C(NCC(F)(F)F)C1=NOC2(CCCNC2)C1 (configuration not stated)
A. 0.364

Q. Here is the next compound: Cc1ccoc1C(=O)N1CCC(n2cc(CO)nn2)CC1
A. -3.4

Q. Here is the next compound: COc1cc(CN(C)C(=O)NCC(=O)NC(C)C)ccc1SC
A. -1.54

Q. Here is the next compound: Cc1nn(C)c(N(C)C)c1CNCc1cccnc1
A. 16.2

Q. Here is the next compound: COc1ccc(Cl)cc1C(C(=O)O)N1CCSCC1 (configuration not stated)
A. -3.65

Q. Here is the next compound: Cn1nccc1-c1ncc2c(c1C(=O)O)CCN(Cc1ccncc1)C2
A. -0.712

Q. Here is the next compound: O=C(N1CCCC1)N1C[C@H]2CCC[C@@]2(COCc2ccccn2)C1
A. -10.8

Q. Here is the next compound: CCc1nnsc1C(=O)NCCn1nc2ccccn2c1=O
A. 31.6

Q. Here is the next compound: CC(C)Cn1[nH]cc/c1=N\C(=O)CN1CCOC(Cn2cccn2)C1 (configuration not stated)
A. 21.5

Q. Here is the next compound: c1ccc(Cc2nc(CNC3CCOC4(CCOCC4)C3)no2)cc1 (configuration not stated)
A. -13.7

Q. Here is the next compound: CS(=O)(=O)N1CCCn2nc(CNc3cc(C#N)ccn3)cc2C1
A. -6.16

Q. Here is the next compound: CN1CCN(c2ccc(NS(=O)(=O)c3ccc(Br)s3)cc2C(=O)O)CC1
A. 24
